Biological target: rat squalene epoxidase (Rattus norvegicus)
Construct: Livers were extracted and homogenized; microsomes solubilized with 2 % Triton X-100, 105000 x g supernatant
Test: Squalene epoxidase inhibiting activity (3H-squalene to squalene-2,3-epoxide, solubilized liver microsome fraction)
Conditions: 8 µM 3H-squalene, 37 °C, 30 minutes, read-out: 50 % inhibitory concentration (IC50)
Experimental: The rat squalene epoxidase was prepared by the method described in J. Biol. Chem., vol. SD-strain female rats were killed by exsanguination. Livers were extracted and homogenized with in the presence of 2 volumes of 0.1M Tris-HCl buffer (pH 7.5). The homogenate was centrifuged at 9750 Xg for 10 minutes. The supernatant fraction was further centrifuged at 105000 Xg for 1 hour. The sediment was washed with 0.1M Tris-HCl buffer (pH 7.5), and then centrifuged at 105000 Xg for 1 hour. […]
Where a name gives a salt, the structure may show the parent alone.
readoutLabel: pIC50
Give bare numbers, as −log10 of the molar value.

Below, 5 compounds whose answers are already recorded.
CN(C/C=C/C#CC(C)(C)C)Cc1cccc(OCc2cccs2)c1 = 5.48
C=C(C)c1cccc(COc2cccc(CN(C)C/C=C/C#CC(C)(C)C)c2)c1 = 6.29
CN(C/C=C/C#CC(C)(C)C)Cc1cccc(C#Cc2ccccc2)c1 = 5.68
C/C=C(\C)COc1cccc(CN(C)C/C=C/C#CC(C)(C)C)c1 [Compound 90, hydrochloride] = 5.26
CN(C/C=C/C#CC(C)(C)C)Cc1cccc(OCc2ccccc2C(F)(F)F)c1 [Compound 68, hydrochloride] = 5.92

Take each entry in turn and give its pIC50.
1. CCCN(C/C=C/C#CC(C)(C)C)Cc1cccc(OCc2cccc(-c3cnco3)c2)c1
2. Cc1ccccc1COc1cccc(CN(C)C/C=C/C#CC(C)(C)C)c1.Cl [Compound 6, hydrochloride]

### Response
1. 7.47
2. 6.25

###

Exercise: state measured IC50 for each of the compounds provided.
Molecular target: rat squalene epoxidase (Rattus norvegicus, UniProt P52020)
Construct: Livers were extracted and homogenized; from tissue; host or cells: liver of SD-strain female rats; microsomes solubilized with 2 % Triton X-100, 105000 x g supernatant
Sequence (P52020 whole entry): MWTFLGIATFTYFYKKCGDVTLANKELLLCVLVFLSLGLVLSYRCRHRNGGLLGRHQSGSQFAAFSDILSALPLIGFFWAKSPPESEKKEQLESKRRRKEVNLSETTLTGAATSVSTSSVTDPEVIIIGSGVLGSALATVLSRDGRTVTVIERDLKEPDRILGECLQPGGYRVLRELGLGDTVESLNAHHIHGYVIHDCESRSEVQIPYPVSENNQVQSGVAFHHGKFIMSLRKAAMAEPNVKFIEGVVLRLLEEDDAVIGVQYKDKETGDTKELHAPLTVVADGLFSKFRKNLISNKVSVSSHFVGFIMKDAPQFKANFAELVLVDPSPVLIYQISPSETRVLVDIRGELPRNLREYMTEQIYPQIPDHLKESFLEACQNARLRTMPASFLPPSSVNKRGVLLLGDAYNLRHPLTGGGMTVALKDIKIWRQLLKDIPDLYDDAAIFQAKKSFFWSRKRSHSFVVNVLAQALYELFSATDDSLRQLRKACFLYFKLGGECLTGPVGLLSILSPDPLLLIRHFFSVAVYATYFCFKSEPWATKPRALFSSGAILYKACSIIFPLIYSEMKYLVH
Test: Squalene epoxidase inhibiting activity (3H-squalene to squalene-2,3-epoxide, solubilized liver microsome fraction)
Type: biochemical
Details: 8 µM 3H-squalene, 37 °C, 30 minutes, read-out: 50 % inhibitory concentration (IC50)
Procedure: The rat squalene epoxidase was prepared by the method described in J. Biol. Chem., vol. SD-strain female rats were killed by exsanguination. Livers were extracted and homogenized with in the presence of 2 volumes of 0.1M Tris-HCl buffer (pH 7.5). The homogenate was centrifuged at 9750 Xg for 10 minutes. The supernatant fraction was further centrifuged at 105000 Xg for 1 hour. The sediment was washed with 0.1M Tris-HCl buffer (pH 7.5), and then centrifuged at 105000 Xg for 1 hour. […]
Kindly format the answer as number then unit.

Below, 2 compounds whose answers are already recorded.
Cc1cccc(COc2cccc(CN(C)C/C=C/C#CC(C)(C)C)c2)c1 [Compound 53] = 660 nM
CN(C/C=C/C#CC(C)(C)C)Cc1csc(/C=C/c2ccccc2)n1 [Compound 117] = 520 nM

We now examine a further compound.
### Prompt Look at this compound and give its reported IC50. CN(C/C=C/C#CC(C)(C)C)Cc1cccc(/C=C/c2ccccn2)c1 [Compound 108]
### Response 450 nM

###

target: rat squalene epoxidase (Rattus norvegicus); construct: Livers were extracted and homogenized; from tissue; host or cells: liver of SD-strain female rats; microsomes solubilized with 2 % Triton X-100, 105000 x g supernatant; assay: Squalene epoxidase inhibiting activity (3H-squalene to squalene-2,3-epoxide, solubilized liver microsome fraction); format: biochemical; conditions: 8 µM 3H-squalene, 37 °C, 30 minutes, read-out: 50 % inhibitory concentration (IC50)
Structures can show the parent of a compound that is named as a salt.
readoutLabel: IC50 (nM)
Numbers only, in nM.

Below, 5 molecules whose answers are already recorded.
CN(C/C=C/C#CC(C)(C)C)Cc1cccc(CCc2ccccc2)c1 = 3600
CN(C/C=C/C#CC(C)(C)C)Cc1ccc(O)c(OCc2ccccc2)c1 [Compound 50, hydrochloride] = 2100
CCN(C/C=C/C#CC(C)(C)C)Cc1cccc(OCc2cccc(C#N)c2)c1 = 150
CCCN(C/C=C/C#CC(C)(C)C)Cc1cccc(OCc2cccc(C#N)c2)c1 [Compound 47, hydrochloride] = 150
CN(C/C=C/C#CC(C)(C)C)Cc1ccc(/C=C/c2ccccc2)o1 = 270

Take each entry in turn and give its IC50.
1. CC(C)=C(C)COc1cccc(CN(C)C/C=C/C#CC(C)(C)C)c1
2. CN(C/C=C/C#CC(C)(C)C)Cc1cccc(OCc2cccc(-c3cncs3)c2)c1
3. COc1ccccc1COc1cccc(CN(C)C/C=C/C#CC(C)(C)C)c1 [Compound 51, hydrochloride]

### Response
3300
89
1100

Take each entry in turn and give its IC50.
1. CN(C/C=C/C#CC(C)(C)C)Cc1cccc(OCc2cccc(C(F)(F)F)c2)c1 [Compound 57, hydrochloride]
2. CN(C/C=C/C#CC(C)(C)C)Cc1cccc(OCc2ccccc2F)c1 [Compound 66, hydrochloride]

### Response
3100
1200

Take each entry in turn and give its IC50.
1. CN(C/C=C/C#CC(C)(C)C)Cc1cccc(OCc2cccc(O)c2)c1
2. Cc1ccoc1COc1cccc(CN(C)C/C=C/C#CC(C)(C)C)c1
3. CN(C/C=C/C#CC(C)(C)C)Cc1cccc(OCc2ccco2)c1

### Response
1. 4600
2. 870
3. 1700

###

Exercise: state measured IC50 for each of the compounds provided.
test system: cholesterol biosynthesis in the cultured Hep-G2 cells; assay: Inhibitory activity on cholesterol biosynthesis in cultured cells ([14C] acetate incorporation); format: cell-based; conditions: HepG2; Human hepatoma (Hep-G2) cells, [14C] sodium acetate, 6 hours; read-out: 50% inhibitory concentration (IC₅₀)
Where a name gives a salt, the structure may show the parent alone.
Answers are plain numbers, in nM.

Below, 3 compounds whose answers are already recorded.
CN(C/C=C/C#CC(C)(C)C)Cc1cccc(OCc2ccccc2)c1.Cl [Compound 2, hydrochloride] = 1500
CN(C/C=C/C#CC(C)(C)C)Cc1cccc(OCc2cccc(-c3cncs3)c2)c1 = 23
CCN(C/C=C/C#CC(C)(C)C)Cc1cccc(OCc2ccccc2)c1 [Compound 36, hydrochloride] = 64

Take each entry in turn and give its IC50.
1. CCCN(C/C=C/C#CC(C)(C)C)Cc1cccc(OCc2cccc(C#N)c2)c1 [Compound 47, hydrochloride]
2. CCN(C/C=C/C#CC(C)(C)C)Cc1cccc(OCc2cccc(C#N)c2)c1

### Response
1. 90
2. 110

Take each entry in turn and give its IC50.
1. CCN(C/C=C/C#CC(C)(C)C)Cc1cccc(OCc2ccccc2C)c1.Cl [Compound 44, hydrochloride]
2. CN(C/C=C/C#CC(C)(C)C)Cc1cccc(OCc2cccc(C#N)c2)c1.Cl [Compound 64, hydrochloride]
3. CCCN(C/C=C/C#CC(C)(C)C)Cc1cccc(OCc2ccccc2C)c1.Cl [Compound 45, hydrochloride]
4. Cc1ccccc1CNc1cccc(CN(C)C/C=C/C#CC(C)(C)C)c1 [Compound 103, hydrochloride]

### Response
1: 50; 2: 120; 3: 83; 4: 450

Take each entry in turn and give its IC50.
1. CCCN(C/C=C/C#CC(C)(C)C)Cc1cccc(OCc2ccccc2)c1
2. CN(C/C=C/C#CC(C)(C)C)Cc1cccc(OCc2cccc(-c3cnco3)c2)c1
3. Cc1ccccc1COc1cccc(CN(C)C/C=C/C#CC(C)(C)C)c1.Cl [Compound 6, hydrochloride]

### Response
1: 85; 2: 20; 3: 340

###

Target: rat squalene epoxidase (Rattus norvegicus, UniProt P52020)
Construct: Livers were extracted and homogenized; microsomes solubilized with 2 % Triton X-100, 105000 x g supernatant
Experiment: Squalene epoxidase inhibiting activity (3H-squalene to squalene-2,3-epoxide, solubilized liver microsome fraction)
Conditions: 8 µM 3H-squalene, 37 °C, 30 minutes, read-out: 50 % inhibitory concentration (IC50)
Description: The rat squalene epoxidase was prepared by the method described in J. Biol. Chem., vol. SD-strain female rats were killed by exsanguination. Livers were extracted and homogenized with in the presence of 2 volumes of 0.1M Tris-HCl buffer (pH 7.5). The homogenate was centrifuged at 9750 Xg for 10 minutes. The supernatant fraction was further centrifuged at 105000 Xg for 1 hour. The sediment was washed with 0.1M Tris-HCl buffer (pH 7.5), and then centrifuged at 105000 Xg for 1 hour. […]
Where a name gives a salt, the structure may show the parent alone.
Exercise: state measured log10(IC50) for each of the compounds provided.
The common logarithm of IC50 in nM is what is listed.

Below, 2 compounds whose answers are already recorded.
CCN(C/C=C/C#CC(C)(C)C)Cc1cccc(OCc2ccccc2)c1 [Compound 36, hydrochloride] = 2.48
CN(C/C=C/C#CC(C)(C)C)Cc1cccc(OCc2cccc(C=O)c2)c1 [Compound 95] = 3.83

Take each entry in turn and give its log10(IC50).
1. CN(C/C=C/C#CC(C)(C)C)Cc1cccc(/C=C/c2ccccc2)c1.Cl [Compound 97, hydrochloride]
2. CN(C/C=C/C#CC(C)(C)C)Cc1cccc(OCc2ccccc2Cl)c1 [Compound 56]
3. CC(C)(C)C#C/C=C/CN(Cc1cccc(OCc2ccccc2)c1)C1CC1 [Compound 43]

### Response
1: 2.51; 2: 3.32; 3: 3.59

The reported numbers originate from patent EP0318860B1.
